test-system: BLT2 (Homo sapiens, UniProt Q9NPC1)
Construct: HA; expressed in transfected cells
test-details: [3H]LTB4 and BLT2 binding inhibition, CHO-BLT2 cell membrane proteins
measurement-conditions: [3H]LTB4 5 nM
assay-endpoint: IC50 (nM)
Only the number, expressed in nM, is required.

CCCCC(=O)N(CC#Cc1ccc(C(=O)O)cc1)c1ccccc1; 30.7

Query (compound): CCCCC(=O)N(CC#Cc1ccc(C(=O)N2CCN(C(C)C)CC2)cc1)c1ccccc1 ; field requested: IC50
5.6

* * *

test-system: BLT2-expressing cells (CHO-BLT2 cells) (Homo sapiens, UniProt Q9NPC1)
Construct: HA; expressed in transfected cells
Sequence (Q9NPC1 with tags, fused parts or gaps): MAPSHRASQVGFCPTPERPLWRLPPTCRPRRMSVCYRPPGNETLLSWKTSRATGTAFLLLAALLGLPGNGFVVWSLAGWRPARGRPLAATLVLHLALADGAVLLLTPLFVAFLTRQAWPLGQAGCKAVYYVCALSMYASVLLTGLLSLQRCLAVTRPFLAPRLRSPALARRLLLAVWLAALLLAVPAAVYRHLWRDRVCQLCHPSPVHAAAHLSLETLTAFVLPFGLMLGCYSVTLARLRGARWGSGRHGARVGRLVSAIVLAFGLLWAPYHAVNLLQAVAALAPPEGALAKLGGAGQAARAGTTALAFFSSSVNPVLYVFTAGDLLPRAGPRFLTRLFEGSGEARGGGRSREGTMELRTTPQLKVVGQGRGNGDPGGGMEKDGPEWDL
test-details: MTT cell growth of LTB4-stimulated BLT2-expressing cells
Type: cell-based
measurement-conditions: pre-treated at 10 μM, LTB4 300 nM
Examples of molecules with documented cell growth compared with the control DMSO follow.
Only the number, expressed in %, is required.

Examples from the recorded data:
CCCCC(=O)N(CC#Cc1ccc(C(=O)N2CCNCC2)cc1)c1ccccc1; 16.7
CCCCC(=O)N(CC#Cc1ccc(C(=O)N2CCN(C(C)C)CC2)cc1)c1ccccc1; 56.6
CCCCC(=O)N(CC#Cc1ccc(C(=O)N2CCN(C)CC2)cc1)c1ccccc1; 88.0

// moving on: another record for cell growth compared with the control DMSO
Query (molecule): CCCCC(=O)N(CC#Cc1ccc(C(=O)O)cc1)c1ccccc1 ; field requested: cell growth compared with the control DMSO
96.3

* * *

test-system: BLT2-expressing cells (CHO-BLT2 cells) (Homo sapiens)
Construct: HA; expressed in transfected cells
Sequence (Q9NPC1 with tags, fused parts or gaps): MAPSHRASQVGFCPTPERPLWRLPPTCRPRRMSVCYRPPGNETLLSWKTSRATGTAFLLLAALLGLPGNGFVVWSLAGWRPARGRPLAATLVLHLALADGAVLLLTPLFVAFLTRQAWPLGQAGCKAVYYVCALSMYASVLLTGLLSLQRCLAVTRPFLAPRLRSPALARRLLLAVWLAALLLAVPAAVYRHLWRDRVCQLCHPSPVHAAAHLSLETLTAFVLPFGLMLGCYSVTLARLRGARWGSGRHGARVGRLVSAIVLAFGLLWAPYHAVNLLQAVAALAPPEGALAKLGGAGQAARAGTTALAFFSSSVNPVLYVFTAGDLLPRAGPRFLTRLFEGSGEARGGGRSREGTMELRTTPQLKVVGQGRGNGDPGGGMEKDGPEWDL
test-details: MTT cell growth of LTB4-stimulated BLT2-expressing cells
Type: cell-based
measurement-conditions: 10 μM, LTB4 300 nM, read-out: growth inhibitory effect
assay-endpoint: inhibition at 10 µM
For clarity, give the value followed by its unit.

Examples from the recorded data:
CCCCC(=O)N(CC#Cc1ccc(C(=O)NCCN(C)C)cc1)c1ccccc1; 99%
CCCCC(=O)N(CC#Cc1ccc(C(=O)N(CC)CC)cc1)c1ccccc1; 99%
CCCCC(=O)N(CC#Cc1cccc(C(=O)N2CCN(C(C)C)CC2)c1)c1ccccc1; 70%
CCCCC(=O)N(CC#Cc1ccc(C(=O)N2CCN(C(C)C)CC2)cc1)c1ccc(F)cc1; 60%

Query (compound): CCCCC(=O)N(CC#Cc1ccc(C(=O)NC(C)C(=O)OC)cc1)c1ccccc1 (centres unmarked) ; field requested: inhibition at 10 µM
71.6%

What about this compound? CCCCC(=O)N(CC#Cc1ccc(C(=O)NC(C)C(=O)O)cc1)c1ccccc1 (centres unmarked)
99%

What about this compound? CCCCC(=O)N(CC#Cc1ccc(C(=O)N2CCN(C(C)C)CC2)cc1)c1cccc(F)c1
99%

What about this compound? CCCCC(=O)N(CC#Cc1cccc(C(=O)N2CCNCC2)c1)c1ccccc1
65%
